# System: COLO 205 colon
# Protocol notes: NCI tumour cell line growth inhibition, 48 h
Quantity: TGI

Compound: CCC1(CC)C(=O)N(C(=O)c2ccc(C)cc2)N(C(=O)c2ccc(C)cc2)C1=O
Subject of test: COLO 205 colon
Observed measurement: > 75 µM
--
Compound: CN(C)c1ccc(C2SCC(=O)N2c2nc3cc4sc(N5C(=O)CSC5c5ccc(N(C)C)cc5)nc4cc3s2)cc1 (stereo not given)
Subject of test: COLO 205 colon
Observed measurement: > 100 µM
--
Compound: COc1oc(C(=O)NC2CCCCC2)c(-c2ccc(Cl)cc2)c1S(=O)(=O)c1ccccc1
Subject of test: COLO 205 colon
Observed measurement: 44.9 µM
--
Compound: COC1CC(C)(NC(C)=O)C2OC(c3ccccc3)OCC2O1 (stereo not given)
Subject of test: COLO 205 colon
Observed measurement: > 100 µM
--
Compound: CCOC(=O)c1nnsc1NC(=O)NCCCCCCn1c(=O)n(CCCCCCNC(=O)Nc2snnc2C(=O)OCC)c(=O)n(CCCCCCNC(=O)Nc2snnc2C(=O)OCC)c1=O
Subject of test: COLO 205 colon
Observed measurement: > 100 µM
--
Compound: O=c1ssc2c1Nc1c(ssc1=O)S2
Subject of test: COLO 205 colon
Observed measurement: 36.4 µM
--
Compound: O=C(Nn1cc(F)c(=O)[nH]c1=O)C12CC3CC(CC(C3)C1)C2
Subject of test: COLO 205 colon
Observed measurement: 23.5 µM
--
Compound: Cc1cc2c(cc1C)[n+](=O)c(C(=O)C(C)(C)C)c(C(F)(F)F)n2[O-]
Subject of test: COLO 205 colon
Observed measurement: > 100 µM
--
Compound: CCOc1ccccc1N1CSc2nnc(-c3ccccc3)n2C1
Subject of test: COLO 205 colon
Observed measurement: > 100 µM
--
Compound: CN(C)c1ccc(/C=C2\C[C@H]3[C@@H]4CCc5cc(OCCN6CCCC6)ccc5[C@H]4CC[C@]3(C)[C@H]2O)cc1
Subject of test: COLO 205 colon
Observed measurement: 27.9 µM
--
Compound: CC[C@]1(O)CC2CN(CCCc3c([nH]c4ccccc34)[C@@](C(=O)OC)(c3cc4c(cc3OC)N(C)C3C45CCN4CC=C[C@](CC)(C45)C(OC(C)=O)[C@@]3(O)C(=O)OC)C2)C1 (stereo not given in full)
Subject of test: COLO 205 colon
Observed measurement: > 7.86 µM
--
Compound: Nc1ncc(-c2ccc3ncnc(N4CCc5ccc(Cl)cc54)c3c2)cn1
Subject of test: COLO 205 colon
Observed measurement: 9.53 µM
--
Compound: O=C(CNC(=O)c1ccccc1)Oc1c(Cl)c(Cl)c(Cl)c(Cl)c1Cl
Subject of test: COLO 205 colon
Observed measurement: > 100 µM
--
Compound: N#CCC(=O)N/N=C(\CCN1CCCC1)CC(c1ccccc1)c1c(O)c2ccccc2oc1=O (stereo not given)
Subject of test: COLO 205 colon
Observed measurement: > 56.8 µM
--
Compound: CCCCCCCC/C=C(\Br)C(O)C(Br)Br (stereo not given)
Subject of test: COLO 205 colon
Observed measurement: 41 µM
--
Compound: COc1ccc2c(c1)OCC1Cc3cc4c(cc3OC21)OCO4 (stereo not given)
Subject of test: COLO 205 colon
Observed measurement: > 100 µM
--
Compound: O=C(Nc1ccc(F)cc1)C(=O)C(C(=O)c1ccccc1F)C1OC(=O)c2ccccc21 (stereo not given)
Subject of test: COLO 205 colon
Observed measurement: > 100 µM
--
Compound: O=C1/C(=N\n2c(-c3ccncc3)n[nH]c2=S)c2cc(Cl)ccc2N1CN1CCCCC1
Subject of test: COLO 205 colon
Observed measurement: > 100 µM
--
Compound: Cc1csc(-n2nc(C)cc2C)n1
Subject of test: COLO 205 colon
Observed measurement: > 100 µM
--
Compound: NNC(=O)c1n[nH]n(N)c1=S
Subject of test: COLO 205 colon
Observed measurement: > 100 µM
--
Compound: O=C1C(c2ccc([N+](=O)[O-])cc2)=[N+]([O-])c2ccc([N+](=O)[O-])cc21
Subject of test: COLO 205 colon
Observed measurement: > 100 µM
--
Compound: COc1ccc(C(=O)c2c(C(C(=O)c3ccc(OC)cc3)C(=O)c3ccc(OC)cc3)n(C(=O)c3ccc(OC)cc3)c3ccccc23)cc1
Subject of test: COLO 205 colon
Observed measurement: > 100 µM
--
Compound: COP(=O)(CC(=O)C1OC(C)(C)OC1C(O)COCc1ccccc1)OC (stereo not given)
Subject of test: COLO 205 colon
Observed measurement: > 100 µM
--
Compound: CN1CCC(SC2Cc3cc(Cl)ccc3Sc3ccccc32)CC1 (stereo not given)
Subject of test: COLO 205 colon
Observed measurement: 27.2 µM
--
Compound: O=C1c2ccccc2C(=O)c2c(Nc3ccc(CCO)cc3)ccc(O)c21
Subject of test: COLO 205 colon
Observed measurement: 21.7 µM
--
Compound: CCC(=O)O[C@@H]([C@H](C)[C@H]1OC(CC)=C(C)C(=O)[C@@H]1C)[C@@H](C)C(=O)CC
Subject of test: COLO 205 colon
Observed measurement: > 100 µM
--
Compound: COc1ccc(-n2c(N)c(C#N)c(C#N)c2-c2cccc([N+](=O)[O-])c2)cc1
Subject of test: COLO 205 colon
Observed measurement: > 100 µM
--
Compound: COc1ccc(N=NC(=O)NC(CC(C)C)C(=O)NC(Cc2ccccc2)C(=O)O)cc1 (stereo not given)
Subject of test: COLO 205 colon
Observed measurement: 5.36 µM
--
Compound: O=C1Nc2ccc(Cl)cc2C(=O)N2CCC[C@@H]12
Subject of test: COLO 205 colon
Observed measurement: > 100 µM
--
Compound: CCOC(=O)/C(=N/Nc1ccc(C)cc1)N1C(=S)C=C(C)NN(C)C1=S
Subject of test: COLO 205 colon
Observed measurement: > 100 µM
--
Compound: CN(C)c1ccc(/C=C(\C#N)c2nc(-c3cc4ccccc4oc3=O)cs2)cc1
Subject of test: COLO 205 colon
Observed measurement: > 50 µM
--
Compound: O=[N+]([O-])C(=C1NCCN1)C(Cl)=C(Cl)Cl
Subject of test: COLO 205 colon
Observed measurement: > 100 µM
--
Compound: CCCCN(CCCC)CC(O)c1cc(-c2ccc(Cl)c(Cl)c2)nc2c(Cl)cc(Cl)cc12 (stereo not given)
Subject of test: COLO 205 colon
Observed measurement: > 100 µM
--
Compound: CCCCCCCCCCOC1C(C(O)CNCCCN(C)C)OC2OC3(CCCCC3)OC21 (stereo not given)
Subject of test: COLO 205 colon
Observed measurement: 3.43 µM
--
Compound: COc1cc2c(cc1OC)[C@@H]1C(=O)c3cc4c(cc3[C@@H]1N(CCN(C)C)C2=O)OCO4
Subject of test: COLO 205 colon
Observed measurement: > 35.5 µM
--
Compound: CN(C)CCCNC(=O)c1c(-c2cccnc2)cnc2ccccc12
Subject of test: COLO 205 colon
Observed measurement: > 100 µM
--
Compound: O=C1Nc2ccccc2/C1=C/C(=O)c1ccc(N2CCCC2)cc1
Subject of test: COLO 205 colon
Observed measurement: 4.96 µM
--
Compound: S=C1C(=Nc2ccccc2)N(C2CCCCC2)C(=NC2CCCCC2)N1c1ccccc1
Subject of test: COLO 205 colon
Observed measurement: > 100 µM
--
Compound: COc1ccc(OC)c(C(=O)c2cccc(C(=O)c3cc(OC)ccc3OC)n2)c1
Subject of test: COLO 205 colon
Observed measurement: > 100 µM
--
Compound: NC(=O)c1ncn2c1CNC(=O)C2
Subject of test: COLO 205 colon
Observed measurement: > 100 µM
